# testName: Metabolic stability in human liver microsomes at 1 uM after 30 mins
# Format: ADME, Microsome
# measurementConditions: read-out: Stability
I'd appreciate it if you could supply remaining at 0.5 h, 1 µM values for the items below.
Give bare numbers, in %.

Example compounds with recorded remaining at 0.5 h, 1 µM:
smilescode=Cc1cccnc1-n1cc(CN2CCC3(CC2)OCc2ccccc23)c(C)n1 assayvalue=64
smilescode=Cc1nn(-c2ncccc2Cl)cc1CN1CCC2(CC1)OCc1ccccc12 assayvalue=60
smilescode=Cc1nn(-c2ccccc2)cc1CN1CCC2(CC1)OCc1ccccc12 assayvalue=28

Incoming: For Cc1nn(-c2c(Cl)cccc2NS(C)(=O)=O)cc1CN1CCC2(CC1)OCc1ccccc12 , what is its reported remaining at 0.5 h, 1 µM?
Outgoing: 54

====

I'd appreciate it if you could supply pIC50 values for the items below.
# studySystem: UniProtKB P41145
# Sequence (P41145 whole entry): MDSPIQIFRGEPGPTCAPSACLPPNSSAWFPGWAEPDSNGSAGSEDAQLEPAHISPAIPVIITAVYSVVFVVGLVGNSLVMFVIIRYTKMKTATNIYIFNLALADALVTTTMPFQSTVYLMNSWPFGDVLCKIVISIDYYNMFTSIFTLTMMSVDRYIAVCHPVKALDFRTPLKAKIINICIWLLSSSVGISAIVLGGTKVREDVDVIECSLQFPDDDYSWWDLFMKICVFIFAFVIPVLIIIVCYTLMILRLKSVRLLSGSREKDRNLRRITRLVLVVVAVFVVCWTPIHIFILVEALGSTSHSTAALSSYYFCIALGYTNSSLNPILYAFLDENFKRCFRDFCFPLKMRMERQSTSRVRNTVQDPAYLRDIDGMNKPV
# testName: Displacement of [3H]U69593 from human cloned kappa opioid receptor expressed in CHO cells
pIC50: −log10 of the molar value.

Example molecules with recorded pIC50:
smilescode=Cc1nn(-c2c(Cl)cccc2NS(C)(=O)=O)cc1CN1CCC2(CC1)OCc1ccccc12 assayvalue="< 5.00"
smilescode=Cc1nn(-c2ncccc2Cl)cc1CN1CCC2(CC1)OCc1ccccc12 assayvalue="< 5.00"

For the 2 molecules below, give their pIC50 values.
1. Cc1nn(-c2ccccc2)cc1CN1CCC2(CC1)OCc1ccccc12
2. Cc1cccnc1-n1cc(CN2CCC3(CC2)OCc2ccccc23)c(C)n1

Outgoing:
[5.01, "< 5.00"]

====

# testName: Displacement of [125I]Tyr14-NC/OFQ from human ORL1 expressed in CHO cells
# Format: cell-based
# measurementConditions: read-out: I50
endpointName: pIC50
One number for each entry, as −log10 of the molar value.

smilescode=CC(C)(C)c1nn(-c2ccccc2)cc1CN1CCC2(CC1)OCc1ccccc12 assayvalue=7.23
smilescode=c1ccc(-c2cccc(CN3CCC4(CC3)OCc3ccccc34)c2)nc1 assayvalue=6.51
smilescode=Cc1ccnc(-n2cc(CN3CCC4(CC3)OCc3ccccc34)c(C)n2)c1 assayvalue=7.72

Incoming: For CCc1nn(-c2ccccc2)cc1CN1CCC2(CC1)OCc1ccccc12 , what is its reported pIC50?
Outgoing: 8.03

====

# testName: Metabolic stability in rat liver microsomes at 1 uM after 30 mins
# Type: ADME, Microsome
# measurementConditions: read-out: Stability
endpointName: remaining at 0.5 h, 1 µM (%)
One number for each entry, in %.

Example molecules with recorded remaining at 0.5 h, 1 µM:
smilescode=Cc1cccnc1-n1cc(CN2CCC3(CC2)OCc2ccccc23)c(C)n1 endpointname="remaining at 0.5 h, 1 µM" assayvalue=1
smilescode=Cc1nn(-c2ccccc2)cc1CN1CCC2(CC1)OCc1ccccc12 endpointname="remaining at 0.5 h, 1 µM" assayvalue=4

For the 2 molecules below, give their remaining at 0.5 h, 1 µM values.
1. Cc1nn(-c2c(Cl)cccc2NS(C)(=O)=O)cc1CN1CCC2(CC1)OCc1ccccc12
2. Cc1nn(-c2ncccc2Cl)cc1CN1CCC2(CC1)OCc1ccccc12

Outgoing:
1. 69
2. 6

====

# testName: Displacement of [125I]Tyr14-NC/OFQ from human ORL1 expressed in CHO cells
# Type: cell-based
# measurementConditions: read-out: I50
endpointName: IC50 (nM)
Answers are plain numbers, in nM.

smilescode=Cc1nn(-c2cnccn2)cc1CN1CCC2(CC1)OCc1ccccc12 assayvalue=200
smilescode=Cc1nn(-c2ncccn2)cc1CN1CCC2(CC1)OCc1ccccc12 assayvalue=93
smilescode=c1ccc(Cc2nn(-c3ccccc3)cc2CN2CCC3(CC2)OCc2ccccc23)cc1 assayvalue=30
smilescode=Cc1nn(-c2ncccc2NS(C)(=O)=O)cc1CN1CCC2(CC1)OCc1ccccc12 assayvalue=11

For the 7 compounds below, give their IC50 values.
1. Cc1nn(-c2ncccc2Cl)cc1CN1CCC2(CC1)OCc1ccccc12
2. CNC(=O)c1cccnc1-n1cc(CN2CCC3(CC2)OCc2ccccc23)c(C)n1
3. Cc1nn(-c2ccccn2)cc1CN1CCC2(CC1)OCc1ccccc12
4. c1ccc(-n2cc(CN3CCC4(CC3)OCc3ccccc34)cn2)cc1
5. Cc1nn(-c2cccc(Cl)n2)cc1CN1CCC2(CC1)OCc1ccccc12
6. Cc1nn(-c2ccccc2Cl)cc1CN1CCC2(CC1)OCc1ccccc12
7. Cc1nn(-c2ccc(Cl)cn2)cc1CN1CCC2(CC1)OCc1ccccc12

Outgoing:
1: 4.5; 2: 22; 3: 12; 4: 40; 5: 43; 6: 0.65; 7: 280

Data provenance is ChEMBL document CHEMBL1157430.
